assay: qHTS Validation assay for Inhibitors of Plasmodium falciparum Dd2 growth in vitro; further: nearly all actives have a fitted effect of over 70% in size; conditions: P. falciparum Dd2 in RBCs, SYBR Green growth, 72 h; series mostly up to 28.7 µM
About 1,600 (39%) of roughly 4,100 compounds were called active. Another 25% or so got no clear call; they are omitted. The call rests on the fitted dose curve; in most records, active means well fitted inhibition curve with a large enough effect; inconclusive means small, poorly fitted or top-dose-only effect; inactive means no such curve, though single readings can be large or run the other way. The list shows a part of the results.
Outcomes: t (active), f (inactive)

INSERT INTO results (compound, category_label) VALUES
  ('Oc1c(Cl)cc(Cl)cc1CN1CCN(Cc2ccccc2)CC1', 't'),
  ('CCC(CC)c1cc([C@H]2CN3CC[C@H]2C[C@@H]3COC(=O)Nc2ccc(C(C)(C)C)cc2)nc(-c2ccncc2)n1', 't'),
  ('Oc1ccc(Cl)cc1CN1CCN(Cc2ccccc2)CC1', 't'),
  ('C[n+]1c(-c2ccccc2)cc(-c2ccc(Cl)cc2)cc1-c1ccccc1', 't'),
  ('CCOc1c(Cl)cc(CNC(C)C(O)c2ccccc2)cc1OC (centres undefined)', 't'),
  ('CCC(CC)c1cc([C@H]2CN3CC[C@H]2C[C@@H]3CNC(C)=O)nc(-c2ccncc2)n1', 't'),
  ('CC(C)[C@@]1(NC(=O)[C@@H]2C[C@@H]3c4cccc5[nH]cc(c45)C[C@H]3N(C)C2)O[C@@]2(O)[C@@H]3CCCN3C(=O)[C@H](Cc3ccccc3)N2C1=O', 't'),
  ('COc1ccc(NC(=O)OC[C@H]2C[C@@H]3CCN2C[C@@H]3c2cc(C3CCCC3)nc(-c3ccncc3)n2)cc1', 't'),
  ('CN1CCN(C[C@H]2CN3CC[C@H]2C[C@@H]3CNS(=O)(=O)c2ccccc2)CC1', 'f'),
  ('CCC(CC)c1cc([C@H]2CN3CC[C@H]2C[C@@H]3CNC(=O)COc2ccccc2)nc(-c2ccncc2)n1', 't'),
  ('CCC(CC)c1cc([C@H]2CN3CC[C@H]2C[C@@H]3CNC(=O)c2ccccc2)nc(-c2ccncc2)n1', 't'),
  ('FC(F)(F)CN1C2CCC1CN(c1nnc(Cl)c3ccccc13)C2', 't'),
  ('CCC(CC)c1cc([C@H]2CN3CC[C@H]2C[C@@H]3CNC(=O)NCc2ccccc2)nc(-c2ccncc2)n1', 't'),
  ('Cn1nc(C2CCCCC2)cc1[C@H]1CN2CC[C@H]1C[C@@H]2CNC(=O)c1cccs1', 't'),
  ('CCCCCSc1cc(O)c(C(CNC)C(C)C)cc1OC (centres undefined)', 't'),
  ('COc1cccc([C@@H]2CCN(Cc3[nH]c4ccccc4c3C)C[C@H]2O)c1', 't'),
  ('Cc1ccccc1CN1C(=O)CN=C(c2ccccc2)c2cc(Cl)ccc21', 't'),
  ('CCOc1cccc(CNCCc2c(C)[nH]c3ccc(OC(F)(F)F)cc23)c1O', 't'),
  ('CCC1(OC(=O)CN)C(=O)OCc2c1cc1n(c2=O)Cc2cc3ccccc3nc2-1 (centres undefined)', 't');

====

test: qHTS Validation assay for Inhibitors of Plasmodium falciparum Dd2 growth in vitro; further: nearly all actives have a fitted effect of over 70% in size; details: P. falciparum Dd2 in RBCs, SYBR Green growth, 72 h; series mostly up to 28.7 µM
Out of some 4,100 compounds screened, about 1,600 (39%) were called active. About 25% were inconclusive and are not listed. Calls follow the shape of the dose curve; as a rule, active = well fitted inhibition curve with a large enough effect; inconclusive = small, poorly fitted or top-dose-only effect; inactive = no such curve, though single readings can be large or run the other way. The list shows a part of the results.
Outcome codes: T = active, F = inactive

INSERT INTO results (test_smiles, category_label) VALUES
  ('COc1cccc(CC(=O)N2[C@H]3CC[C@@H]2c2cnc(-c4ccc(F)cc4)nc2C3)c1', 'F'),
  ('Cc1ccc(O)c(CN2CCN(c3ccccc3)CC2)c1', 'T'),
  ('CC(C)(C)c1ccc(O)c(CN2CCN(c3ccccc3)CC2)c1', 'T'),
  ('Cc1noc(C)c1Cc1ccc(C(=O)N2[C@H]3CC[C@@H]2c2cnc(-c4ccccc4)nc2C3)o1', 'T'),
  ('Cc1ccc(C(=O)N2[C@H]3CC[C@@H]2c2cnc(-c4ccccc4)nc2C3)cn1', 'F'),
  ('O=C(c1cc(C(=O)NCc2ccccc2)c(=O)n(Cc2ccccc2)c1)c1cc(Br)ccc1O', 'T'),
  ('COc1cc2c(cc1OCC1CC1)NC(=O)C21CCN(c2nccs2)CC1', 'T'),
  ('O[C@H]1[C@H](NCC2CCCC2)[C@@H](c2ccccc2)C[C@H]1O', 'T');
